All values here come from patent US20230272055A1.

- test-system: Human Type 1 mutCALR (human)
- Sequence (chain, as listed by the source limits assumed): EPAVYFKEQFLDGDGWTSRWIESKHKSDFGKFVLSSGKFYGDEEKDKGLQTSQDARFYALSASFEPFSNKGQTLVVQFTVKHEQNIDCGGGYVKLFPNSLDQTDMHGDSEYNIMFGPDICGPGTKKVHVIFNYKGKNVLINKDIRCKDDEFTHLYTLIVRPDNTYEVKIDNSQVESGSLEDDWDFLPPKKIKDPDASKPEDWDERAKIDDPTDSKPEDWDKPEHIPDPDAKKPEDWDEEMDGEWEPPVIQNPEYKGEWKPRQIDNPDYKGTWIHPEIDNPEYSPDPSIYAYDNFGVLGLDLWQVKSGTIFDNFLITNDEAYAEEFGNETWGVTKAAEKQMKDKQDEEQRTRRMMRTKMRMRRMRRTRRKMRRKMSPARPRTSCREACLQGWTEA
- assay-procedure: cell-based or functional assay
metric: IC50 of inhibition of cell proliferation (Ba/F3 cells with MPL and mutCALR Type 1) (ng/mL)
Please state the figure in ng/mL; there is no need to write the unit.

| binder | assay-result |
| --- | --- |
| anti-mutCALR antibody clone 74 (antibody, human IgG1, lambda, N297A, V domains shown) VH: EVQLVQSGAEVKKPGASVKVSCKVSGYTLTELSMQWVRQAPGKGLEWMGGFDPDDAETMYAEKFQGRLTVTEDTSTDTVYMELSSLRSEDTAVYFCATSPGYDFFDYWGQGTLVTVSS VL: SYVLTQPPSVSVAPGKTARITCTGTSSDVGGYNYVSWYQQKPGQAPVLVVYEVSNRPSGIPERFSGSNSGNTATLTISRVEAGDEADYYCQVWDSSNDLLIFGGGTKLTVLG | 1 |

Continue with the next binder.
-- ask Recorded IC50 of inhibition of cell proliferation (Ba/F3 cells with MPL and mutCALR Type 1) for anti-mutCALR antibody clone 68 (antibody, human IgG1, lambda, N297A, V domains shown) VH: EVQLVQSGAEVKKPGASVKVSCKVSGYTLTELSMQWVRQAPGKGLEWMGGFDPDEGETMYAEKFQGRLTVTEDTSTDTVYMELRSLTSEDTALYFCATSPGYDFFDYWGQGTLVTVSS VL: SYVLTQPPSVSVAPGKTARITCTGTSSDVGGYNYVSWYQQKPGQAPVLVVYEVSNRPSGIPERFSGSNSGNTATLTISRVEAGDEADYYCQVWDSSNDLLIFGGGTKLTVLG , please?
-- reply 0.9
